- Test system: Rattus norvegicus
- Experimental protocol: Diuretic activity given as urinary output of 8 mg/kg perorally administered compound in rats
- Format: functional, Urine
- Experimental setup: route oral
Entries annotated with measured Urinary output

# Compound, Units symbol, Urinary output
data = [
    ("NS(=O)(=O)c1cc2c(cc1Cl)NCNS2(=O)=O [HYDROCHLOROTHIAZIDE]", "mL", 4),
    ("NS(=O)(=O)c1cc(NCCNCC(O)COc2cccc3c2SCC(=O)N3)ccc1Cl (stereo not given)", "mL", 2.6),
    ("NS(=O)(=O)c1cc(S(=O)(=O)NCCNCC(O)COc2cccc3c2SCC(=O)N3)ccc1Cl (stereo not given)", "mL", 3.5),
    ("NS(=O)(=O)c1cc(N2CCN(CC(O)COc3cccc4ccccc34)CC2)ccc1Cl (stereo not given)", "mL", 1.9),
    ("NS(=O)(=O)c1cc(S(=O)(=O)NCCNCC(O)COc2cccc3c2CCC(=O)N3)ccc1Cl (stereo not given)", "mL", 2.2),
    ("NS(=O)(=O)c1cc(C(=O)NCCNCC(O)COc2cccc3c2SCC(=O)N3)ccc1Cl (stereo not given)", "mL", 1.2),
    ("NS(=O)(=O)c1cc(NCCNCC(O)COc2cccc3ccccc23)ccc1Cl (stereo not given)", "mL", 2.4),
    ("NS(=O)(=O)c1cc(N2CCN(CC(O)COc3cccc4c3SCC(=O)N4)CC2)ccc1Cl (stereo not given)", "mL", 2.6),
    ("NS(=O)(=O)c1cc(C(=O)NCCNCC(O)COc2cccc3ccccc23)ccc1Cl (stereo not given)", "mL", 5.2),
    ("NS(=O)(=O)c1cc(C(=O)NCCNCC(O)COc2cccc3c2CCC(=O)N3)ccc1Cl (stereo not given)", "mL", 2.8),
]

----------
Listing: Activity of selected molecules
- Tested on: Rattus norvegicus
- Experimental protocol: Saluretic activity was evaluated for K+ by flame photometry at 8 mg/kg perorally
- Type: functional
- Experimental setup: route oral
Measured endpoint: Activity

# Molecule, Subject of test, Experimental result
rows = [
    ("NS(=O)(=O)c1cc(C(=O)NCCNCC(O)COc2cccc3ccccc23)ccc1Cl (stereo not given)", "Rattus norvegicus", "1.2 m equiv kg-1"),
    ("NS(=O)(=O)c1cc(N2CCN(CC(O)COc3cccc4ccccc34)CC2)ccc1Cl (stereo not given)", "Rattus norvegicus", "1.3 m equiv kg-1"),
    ("NS(=O)(=O)c1cc(NCCNCC(O)COc2cccc3ccccc23)ccc1Cl (stereo not given)", "Rattus norvegicus", "1.6 m equiv kg-1"),
    ("NS(=O)(=O)c1cc(N2CCN(CC(O)COc3cccc4c3SCC(=O)N4)CC2)ccc1Cl (stereo not given)", "Rattus norvegicus", "1.7 m equiv kg-1"),
    ("NS(=O)(=O)c1cc(S(=O)(=O)NCCNCC(O)COc2cccc3c2CCC(=O)N3)ccc1Cl (stereo not given)", "Rattus norvegicus", "0.9 m equiv kg-1"),
]

Each recorded value in this set is attributed to ChEMBL document CHEMBL1126665.
